Provide the recorded melting point for the entries that follow.

Exercise: Which measured melting point value corresponds to CC12CCC3C4CCC(=O)C=C4CCC3C1CCC2CO (stereo not given) ?
Solution: 115 to 118 °C

Exercise: Which measured melting point value corresponds to Cc1c(NC(=O)c2ccc(C3CCCCC3)cc2)ccc2cc(CN3CCCC3)cnc12 ?
Solution: 178 to 179 °C

Exercise: Which measured melting point value corresponds to Cc1nc(N)c2nc(C)n(CCOCCNC(=O)N3CCOCC3)c2c1C ?
Solution: 205 to 207 °C

Exercise: Which measured melting point value corresponds to COc1ccc(C#Cc2ccc3c(Nc4cc(OC)c(Cl)cc4Cl)c(C#N)cnc3c2)cc1 ?
Solution: 225 to 226 °C

Exercise: Which measured melting point value corresponds to CC(C)N1CC(CN(C)C)N(C)c2ccccc2C1=O (stereo not given) ?
Solution: 93 to 95 °C

Exercise: Which measured melting point value corresponds to Cn1c(=O)ccc2cc(COc3cccc(C4(C)CCOCC4)c3)ccc21 ?
Solution: 107 to 108 °C

Exercise: Which measured melting point value corresponds to Fc1ccccc1[C@]1(Cn2nc[nH]c2=S)O[C@H]1c1ccccc1Cl (racemic) ?
Solution: 179 °C

Exercise: Which measured melting point value corresponds to COC(=O)c1ccccc1CS(=O)(=O)NC(=O)Cc1nc(OC)cc(OC)n1 ?
Solution: 98 to 101 °C

Exercise: Which measured melting point value corresponds to CN(C)CCCCCCOc1ccc(CC(=O)c2ccccc2)cc1 ?
Solution: 53 to 54 °C

Exercise: Which measured melting point value corresponds to CN(C)CCOC(=O)c1cnn2c(-c3cccc(C(F)(F)F)c3)ccnc12 ?
Solution: 119 to 120 °C

* * *

measured.metric: melting point

Exercise: Which measured melting point value corresponds to CC(C)(C)C1(O)CCCCC1 ?
Solution: 49 to 50 °C

Exercise: Which measured melting point value corresponds to COC(=O)C1=C(C)NC(c2csc(Cl)n2)=NC1c1ccc(F)cc1Cl (configuration not stated) ?
Solution: 160 to 162 °C

Exercise: Which measured melting point value corresponds to COC(=O)c1ccnc(NC(=O)C(CSC(C)=O)Cc2ccccc2)c1 (configuration not stated) ?
Solution: 137 to 139 °C

Exercise: Which measured melting point value corresponds to CC(C)(C)C(O)(CCC1CCCCC1)Cn1cncn1 (configuration not stated) ?
Solution: 63 to 67 °C

Exercise: Which measured melting point value corresponds to CNC(=O)C(SC)c1cccc(C(=O)c2ccccc2)c1N (configuration not stated) ?
Solution: 149 to 150 °C

Exercise: Which measured melting point value corresponds to COC(=O)c1cc(Cl)c(NC(C)=O)c([N+](=O)[O-])c1O ?
Solution: 166 to 169 °C

Exercise: Which measured melting point value corresponds to O=C1CC(=O)N(c2ccccc2)c2ccccc2N1NCCC1C2CC3CC(C2)CC1C3 (configuration not stated) ?
Solution: 196 to 197 °C

Exercise: Which measured melting point value corresponds to COc1cc(NC(=O)CN2CCN(c3ncccc3C#N)CC2)cc(OC)c1OC ?
Solution: 123 to 124 °C

Exercise: Which measured melting point value corresponds to NCc1cccc2ccc(C(=O)O)cc12 ?
Solution: 223 to 225 °C

Exercise: Which measured melting point value corresponds to O=C1C=CN2c3ccccc3CCC2C1 (configuration not stated) ?
Solution: 135 to 137 °C

Exercise: Which measured melting point value corresponds to Oc1cc(-c2nn3c(c2Cl)CCCC3)c(F)cc1Cl ?
Solution: 177 to 178 °C

Exercise: Which measured melting point value corresponds to O=C1NC(=O)C(c2ccccc2Cl)O1 (configuration not stated) ?
Solution: 106 to 108 °C

Exercise: Which measured melting point value corresponds to COc1nc(Cl)ccc1C(=O)O ?
Solution: 210 to 215 °C

Exercise: Which measured melting point value corresponds to CCCN(C)C1CCc2c(cccc2NC(C)=O)C1 (configuration not stated) ?
Solution: 78 °C

Exercise: Which measured melting point value corresponds to CC(=O)Nc1ccc2c(c1)COCO2 ?
Solution: 133 to 134 °C

Exercise: Which measured melting point value corresponds to O=CC(=Cc1cccc(Cl)c1)C(C=O)=Cc1cccc(Cl)c1 ?
Solution: 107 to 108 °C

Exercise: Which measured melting point value corresponds to COc1ccc2[nH]cc(/C(C#N)=C/c3ccc(Cl)nc3)c2c1 ?
Solution: 184 °C

Exercise: Which measured melting point value corresponds to CC(C)(CC/C=C\[C@@H]1C[C@@H](NS(=O)(=O)c2ccc(Cl)cc2)CN1S(=O)(=O)c1ccc(Cl)cc1)C(=O)O ?
Solution: 159 to 160 °C

Exercise: Which measured melting point value corresponds to COc1ccc(Cn2cnc3c(-c4ccco4)nc(C4CC4)nc32)cc1 ?
Solution: 115 to 116 °C

Exercise: Which measured melting point value corresponds to CCCC(=O)OCC(=O)C1(OC(C)=O)CCC2C3CC(C)C4=CC(=O)CCC4(C)C3C(O)CC21C (configuration not stated) ?
Solution: 98 to 120 °C

Exercise: Which measured melting point value corresponds to Cc1cnc(NC(=O)C(c2ccccc2)c2ccccc2)o1 ?
Solution: 166 to 168 °C

Exercise: Which measured melting point value corresponds to Cc1cccc2c1N(CC(=O)c1ccccc1O)C(=O)C(NC(=O)Nc1cccc(-c3nnn[nH]3)c1)N=C2c1ccccc1F (configuration not stated) ?
Solution: 221 to 225 °C

* * *

measured.metric: melting point

Exercise: Which measured melting point value corresponds to CCn1cc(C(=O)O)c(=O)c2cc(F)c(N3CCN(C)C(c4ccc(C)s4)C3)cc21 (stereo unspecified) ?
Solution: 224 °C

Exercise: Which measured melting point value corresponds to O=C(NCc1ccc(Cl)cc1)n1cc(Br)cnc1=O ?
Solution: 158 to 160 °C

Exercise: Which measured melting point value corresponds to COC(=O)C(=O)NCC(C#Cc1ccccc1)c1ccc(OC)c(OC2CCCC2)c1 (racemic) ?
Solution: 120 to 124 °C

Exercise: Which measured melting point value corresponds to CCc1c(C(=O)Cl)cnn1-c1ccc(Cl)cc1 ?
Solution: 105 to 107 °C

Exercise: Which measured melting point value corresponds to COc1ccc([C@@H]2Sc3cc(Oc4ccc5c(c4)OCO5)ccc3NC(=O)[C@@H]2O)cc1 ?
Solution: 188 °C

Exercise: Which measured melting point value corresponds to c1cc(-c2nc3cc4[nH]cnc4cc3[nH]2)ccn1 ?
Solution: > 280 °C

Exercise: Which measured melting point value corresponds to Clc1cc2c(cc1Cl)CCC(N1CCCC1)=C2 ?
Solution: 141 to 142 °C

Exercise: Which measured melting point value corresponds to CC(C)c1ccc(S(=O)(=O)n2c(COC(C)(C)C(=O)O)cc3cc(C(F)(F)F)ccc32)cc1 ?
Solution: 132 to 134 °C

Exercise: Which measured melting point value corresponds to O=C1Nc2ccc(F)c(F)c2C1c1ncnc2nn(C3CCCC3)cc12 (stereo unspecified) ?
Solution: 280 to 284 °C

Exercise: Which measured melting point value corresponds to CC(C)(CN)c1ccc(C(=O)Nc2cn3cc(-n4ccnc4)ccc3n2)cc1 ?
Solution: 258 to 260 °C

Exercise: Which measured melting point value corresponds to Cc1ccc2[nH]c(=O)n3c(=O)[nH]nc3c2c1C ?
Solution: > 350 °C

Exercise: Which measured melting point value corresponds to C#CCN(Cc1cc2c(=O)[nH]c(COC(C)=O)nc2cc1Cl)c1ccc(C(=O)OC(C)(C)C)cc1 ?
Solution: 219 to 220 °C

Exercise: Which measured melting point value corresponds to CCOC(=O)c1nc2scc(NC(=O)Cc3ccccc3)c2c(=O)[nH]1 ?
Solution: 237 °C

Exercise: Which measured melting point value corresponds to CN(C)C=Cc1[nH]c(=O)ccc1C(=O)c1ccccc1 ?
Solution: 202 to 204 °C

Exercise: Which measured melting point value corresponds to O=S(=O)(NCC(O)(Cn1cncn1)c1ccc(F)cc1F)c1ccc(F)cc1 (stereo unspecified) ?
Solution: 140 to 146 °C

Exercise: Which measured melting point value corresponds to Nc1cnn(CCO)c1NCCO ?
Solution: 140 to 142 °C

Exercise: Which measured melting point value corresponds to O=C1Nc2ccc(Br)cc2C(c2ccccc2)=NC1O (stereo unspecified) ?
Solution: 190 to 192 °C

Exercise: Which measured melting point value corresponds to CSc1nnc(-c2cccs2)n1C ?
Solution: 83 to 85 °C

Exercise: Which measured melting point value corresponds to CCCc1ccc(OCCC(C)C)c2c(=O)cc(-c3nnn[nH]3)oc12 ?
Solution: 199 to 200 °C

Exercise: Which measured melting point value corresponds to CCOC(=O)c1cccc(-c2nccc(OCCc3ccc(OC)c(OC)c3)n2)c1 ?
Solution: 101 to 102 °C

Exercise: Which measured melting point value corresponds to O=C(NCc1ncc(C(F)(F)F)cc1Cl)c1ccc(Br)o1 ?
Solution: 77.8 °C

* * *

Provide the recorded melting point for the entries that follow.

Exercise: Which measured melting point value corresponds to Cc1ccc2c(c1)c(=O)c(-c1nnnn1C)cn2C ?
Solution: 281 to 282 °C

Exercise: Which measured melting point value corresponds to Nc1ncc(-c2ccc3nnn(Cc4ccc5ncccc5c4)c3n2)cn1 ?
Solution: 244 to 246 °C

Exercise: Which measured melting point value corresponds to CC12CCC3c4ccc(O)cc4CCC3C1CCC2=CF (stereo not given) ?
Solution: 125 to 129 °C

Exercise: Which measured melting point value corresponds to O=C(O)c1c(CN2CCC(c3ccccc3)(c3ccccc3)CC2)ncn1Cc1ccc(Cl)cc1 ?
Solution: 135 to 136 °C

Exercise: Which measured melting point value corresponds to Oc1ccc([C@H]2OCCN3[C@@H](CCc4ccccc4)CC[C@H]23)cc1 (racemic) ?
Solution: 170 to 172 °C

Exercise: Which measured melting point value corresponds to CC(=NOC(=O)N(C)SC(Cl)(Cl)Cl)SCCC#N ?
Solution: 136 to 138 °C

Exercise: Which measured melting point value corresponds to ON=c1cc(-c2cc3cccn3cn2)oc2ccc(OCCOc3ccncc3)cc12 ?
Solution: 198 to 200 °C

Exercise: Which measured melting point value corresponds to Cc1nc(-c2ccccc2C(F)(F)F)c2c(n1)N(c1ccc(C(C)C)cc1Br)CC(=O)N2 ?
Solution: 238 to 239 °C

Exercise: Which measured melting point value corresponds to CC(C#N)(C#N)Cc1ccc(Cl)cc1 ?
Solution: 91.1 °C

Exercise: Which measured melting point value corresponds to Cc1cc(CCCCCCCOc2ccc(C(=O)OC(C)C)cc2)on1 ?
Solution: 45 to 46 °C
